- ASSAY_PROCEDURE: Inhibition of recombinant hemoglobinase 2
MEASURED_QUANTITY: IC50 (µM)

CC(C)=CCC/C(C)=C/CC/C(C)=C/Cc1cc(CCC(=O)c2c(O)cc(O)cc2O)ccc1O; 64

1: CC(C)CC(=O)N[C@H](C(=O)N[C@H](C(=O)N[C@@H](CC(C)C)[C@@H](O)CC(=O)N[C@@H](C)C(=O)N[C@@H](CC(C)C)[C@@H](O)CC(=O)O)C(C)C)C(C)C
2: CC(C)=CCC/C(C)=C/Cc1cc(CCC(=O)c2c(O)cc(O)cc2O)ccc1O
Hi team, can someone confirm which has the larger IC50: 1 or 2 ? Thanks. Answer format: the label of the selected item. 2
(2: 51 µM, 1: 0.003 µM)
